Values from patent US20250270343A1

Consider the following binders and their measured kon readings.
Biological target: T1, soluble human GPNMB (recombinant extracellular domain) (human, UniProt Q14956 23-498)
T1 construct: also called huGPNMB; recombinant human GPNMB extracellular domain; not shown: C-terminal polyhistidine or Avi-His tag
T1 sequence: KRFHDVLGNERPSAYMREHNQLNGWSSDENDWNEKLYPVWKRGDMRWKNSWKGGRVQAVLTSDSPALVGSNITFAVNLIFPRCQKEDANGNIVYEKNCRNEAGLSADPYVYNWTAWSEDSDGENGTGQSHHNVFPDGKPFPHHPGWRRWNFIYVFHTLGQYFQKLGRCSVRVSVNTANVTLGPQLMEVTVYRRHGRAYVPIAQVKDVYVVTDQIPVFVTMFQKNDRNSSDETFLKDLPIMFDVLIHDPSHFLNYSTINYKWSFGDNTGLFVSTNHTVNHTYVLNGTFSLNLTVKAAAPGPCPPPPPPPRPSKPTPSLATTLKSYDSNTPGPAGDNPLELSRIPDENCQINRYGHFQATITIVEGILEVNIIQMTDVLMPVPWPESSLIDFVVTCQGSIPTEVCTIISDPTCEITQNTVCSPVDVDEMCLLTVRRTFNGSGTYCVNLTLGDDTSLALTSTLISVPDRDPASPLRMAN
Experiment: SPR Carterra, Ab immobilized
Output spec: scalar in M⁻¹ s⁻¹, unitless text.

Recorded kon (binder anti-GPNMB antibody GPN-42 (antibody, human IgG1, V domains shown, chimeric) VH: DVKLVESGEDLVKPGGSLKLSCAASGFTFSSYAMSWVRQTPEKRLEWVAYISSGGDYIYYADTVKGRFTISRDNARNTLYLQMSSLKSEDTAMYYCTRDRYYDYDVRDYYTMDYWGQGTSVTVSS VL: DVMMTQTPLSLPVSLGDQASISCRSSQSLVHSNGNTYLHWFLQKPGQSPKLLIFRVSNRFSGVPDRFSGRGSGTDFTLKISRVEAEDLGVYFCSQTTHVPRTFGGGTTLEIK ): 14000
